Where these numbers come from: the supplement of paper PMC7125110

B1: glmS ribozyme (parent)
chain: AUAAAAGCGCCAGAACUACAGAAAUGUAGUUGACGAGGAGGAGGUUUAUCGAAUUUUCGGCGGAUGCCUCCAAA

Variants of: B1
method notes: KM; higher = weaker cofactor use; RNA array
condition context: with glucosamine-6-phosphate
Entry flag: Satisfied if KM reaches 2000 µM; Not satisfied if it does not.

{"mutant id": "U31A G59U", "label": "Satisfied"}
{"mutant id": "G32U C58A", "label": "Satisfied"}
{"mutant id": "G37A U46A", "label": "Satisfied"}
{"mutant id": "A12C U49G", "label": "Not satisfied"}
{"mutant id": "G13C", "label": "Satisfied"}
{"mutant id": "G40A U65G", "label": "Satisfied"}
{"mutant id": "U47G A48C", "label": "Satisfied"}
{"mutant id": "G32U", "label": "Satisfied"}
{"mutant id": "A6C U65A", "label": "Satisfied"}
{"mutant id": "U30A U54C", "label": "Not satisfied"}
{"mutant id": "C58A C68U", "label": "Satisfied"}
{"mutant id": "G13A U30G", "label": "Satisfied"}
{"mutant id": "C68U", "label": "Satisfied"}
{"mutant id": "U54A U65A", "label": "Satisfied"}
{"mutant id": "U31A U55A", "label": "Satisfied"}
{"mutant id": "A14G C50U", "label": "Satisfied"}
{"mutant id": "G13U A42G", "label": "Not satisfied"}
{"mutant id": "U55C U65G", "label": "Satisfied"}
{"mutant id": "U56G C58U", "label": "Satisfied"}
{"mutant id": "C16G C71G", "label": "Not satisfied"}
{"mutant id": "A39U U46G", "label": "Satisfied"}
{"mutant id": "G32U A52G", "label": "Satisfied"}
{"mutant id": "U55A C68G", "label": "Not satisfied"}
{"mutant id": "A15C A39C", "label": "Satisfied"}
{"mutant id": "A12C C70A", "label": "Not satisfied"}
{"mutant id": "C11U G32A", "label": "Not satisfied"}
{"mutant id": "U30G C67A C70U", "label": "Not satisfied"}
{"mutant id": "A14U C50U", "label": "Not satisfied"}
{"mutant id": "A12U A52U", "label": "Satisfied"}
{"mutant id": "A33C G66U", "label": "Satisfied"}
{"mutant id": "C58G C71U", "label": "Not satisfied"}
{"mutant id": "U56C A64G", "label": "Satisfied"}
{"mutant id": "U45G U54C", "label": "Not satisfied"}
{"mutant id": "G66C C70G", "label": "Not satisfied"}
{"mutant id": "G13U G41A", "label": "Satisfied"}
{"mutant id": "G13C U54G", "label": "Satisfied"}
{"mutant id": "G29U G41A", "label": "Not satisfied"}
{"mutant id": "C50U U56G", "label": "Not satisfied"}
{"mutant id": "G9A C61U", "label": "Not satisfied"}
{"mutant id": "A52C", "label": "Not satisfied"}
{"mutant id": "U30C A39U", "label": "Not satisfied"}
{"mutant id": "G32A", "label": "Satisfied"}
{"mutant id": "U46A A53U", "label": "Not satisfied"}
{"mutant id": "A39C C71A", "label": "Not satisfied"}
{"mutant id": "C58A U69C", "label": "Not satisfied"}
{"mutant id": "U30A U55A", "label": "Not satisfied"}
{"mutant id": "U47A G66U", "label": "Not satisfied"}
{"mutant id": "A12C C67A", "label": "Not satisfied"}
{"mutant id": "U65C C68G", "label": "Not satisfied"}
{"mutant id": "A12G A53U C67U", "label": "Satisfied"}
{"mutant id": "G40C U46C", "label": "Not satisfied"}
{"mutant id": "C11U G66A", "label": "Satisfied"}
{"mutant id": "G40A U65A", "label": "Satisfied"}
{"mutant id": "A39U A53C", "label": "Satisfied"}
{"mutant id": "G41U U55C", "label": "Satisfied"}
{"mutant id": "U31G U56G C71A", "label": "Satisfied"}
{"mutant id": "G37A C71A", "label": "Not satisfied"}
{"mutant id": "G38U A39G", "label": "Satisfied"}
{"mutant id": "A6G A15C", "label": "Not satisfied"}
{"mutant id": "A48U C67U", "label": "Not satisfied"}
{"mutant id": "A39U G60A", "label": "Satisfied"}
{"mutant id": "G32U C68U", "label": "Not satisfied"}
{"mutant id": "A15G A33U", "label": "Satisfied"}
{"mutant id": "U46A U55A", "label": "Satisfied"}
{"mutant id": "C16A G32U", "label": "Satisfied"}
{"mutant id": "U30C A53G", "label": "Satisfied"}
{"mutant id": "A39U G40U", "label": "Not satisfied"}
{"mutant id": "G13U C16U", "label": "Satisfied"}
{"mutant id": "A52U U57A", "label": "Satisfied"}
{"mutant id": "C11U A14U", "label": "Satisfied"}
{"mutant id": "G40A U47A", "label": "Not satisfied"}
{"mutant id": "C11U C71A", "label": "Not satisfied"}
{"mutant id": "A12U G40A", "label": "Not satisfied"}
